- TGT: UniProt Q6DWJ6
- Sequence (Q6DWJ6 whole entry): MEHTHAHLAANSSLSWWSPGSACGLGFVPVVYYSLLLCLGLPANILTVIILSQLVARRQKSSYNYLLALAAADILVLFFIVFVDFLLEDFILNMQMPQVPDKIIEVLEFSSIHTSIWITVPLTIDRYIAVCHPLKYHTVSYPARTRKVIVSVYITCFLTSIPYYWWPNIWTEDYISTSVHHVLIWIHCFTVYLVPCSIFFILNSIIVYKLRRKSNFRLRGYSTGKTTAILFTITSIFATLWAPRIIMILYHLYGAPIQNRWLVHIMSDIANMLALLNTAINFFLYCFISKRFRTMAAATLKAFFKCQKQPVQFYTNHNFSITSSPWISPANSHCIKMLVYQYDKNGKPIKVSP
- ASSAY COMMENT: GPR139 Agonist titration / agonist counterscreen assay (calcium detection, HEK-GPR139 cells)
- Assay type: cell-based
- Design: expressed in transfected cells; host or cells: HEK Aequorin cells, Maxcyte transient transfection
- TEST CONDITIONS: GPR139 Agonist Activity; HEK-GPR139 cells; read-out: EC50
Provide the recorded pEC50 for the entries that follow.
Give bare numbers, as −log10 of the molar value.

Prompt: Write down the reported pEC50 of COc1ccc2cc(CCNC(=O)/C=C\c3ccc4c(c3)OCO4)c(=O)[nH]c2c1 [SR-01000124392] , test system: UniProt Q6DWJ6.
Response: 5.70

Prompt: Write down the reported pEC50 of Cc1cc(C)c2c(cnn2CC(=O)N2CCc3ccccc3C2)c1 [SR-01000154995] , test system: UniProt Q6DWJ6.
Response: 6.24

Prompt: Write down the reported pEC50 of O=C(CCS(=O)(=O)c1cccc2nonc12)NCCc1ccc(Cl)cc1 [SR-01000119565] , test system: UniProt Q6DWJ6.
Response: 5.52

Prompt: Write down the reported pEC50 of COc1ccc(SCC(=O)NNC(=S)Nc2ccccc2)cc1 [SR-01000526835] , test system: UniProt Q6DWJ6.
Response: 6.02

Prompt: Write down the reported pEC50 of COc1cc(C(=O)NNC(=O)COc2ccc3ccccc3c2)cc(OC)c1OC [SR-01000056004] , test system: UniProt Q6DWJ6.
Response: 6.35

Here are 8 compounds. What values of pEC50 were reported for them?
1. O=C(CN1CCCN(Cc2ccc(F)cc2Cl)C1=O)NC1CCCCC1 [SR-01000146448]
2. CCCN1C(=O)CCc2cc(NC(=O)NCCc3ccc(OC)cc3)ccc21 [SR-01000923206]
3. Cl.Cl.Nc1[nH]ncc1-c1ccc(NC(=O)[C@H](N)Cc2cccc(F)c2)cc1 [SR-00000004378]
4. O=C(CC1C(=O)N(c2ccccc2)C(=O)N1Cc1ccc2c(c1)OCO2)Nc1ccc(Cl)cc1 (stereo not drawn) [SR-01000428566]
5. Cc1cc(Br)ccc1OCC(=O)NNC(=O)c1ccccc1C [SR-01000318521]
6. COc1ccc(C)cc1NC(=O)NNC(=O)C(C)Oc1ccc(F)cc1Cl (stereo not drawn) [SR-01000277633]
7. Cc1c(Cl)c(C(F)(F)F)nn1CC(=O)NCc1ccc(Cl)cc1 [SR-01000429212]
8. O=C(CNC(=O)c1ccc(Br)o1)NC1CCCc2ccccc21 (stereo not drawn) [SR-01000064101]

Response:
1: 6.55; 2: 6.22; 3: 6.04; 4: 6.37; 5: 5.92; 6: 6.29; 7: 5.64; 8: 6.28
